For each of the binders below, state its Qpatch IC50.
biological target: huNav1.7α + β1 (human); assay: cell-based or functional assay

The reported value for F010300631 (VHH) VHH: EVQLVESGGGLVQPGGSLRLSCAASGPVFNINSMAWYRRAPGKQRELVAYSTPGGSTNYADSVKGRFTISRDNAKRVYLQMNSLTPEDTAVYYCRALLQPSIYDISRTYWGQGTLVTVSS in terms of Qpatch IC50 is 73 nM

For reference, reported Qpatch IC50 for 69AVB (Fc fusion, also called F010301656-5GS-Fc; F10301656* (ISVD with human IgG1 Fc); not shown: 5GS linker; human IgG1 Fc) EVQLVESGGGLAQPGGSLRLSCAASGPVFNINRMAWYRRAPGKQRELVAYVTPTGDISYTDSVKGRFTISRDGSKRWSLQMNSLTPEDTAVYYCRALLQPDSYSNTRTYWGQGTLVTVSS stands at 13 nM

F010300948 (VHH) VHH: EVQLVESGGGLVQPGGSLRLSCAASGPVFNINRMAWYRRAPGKQRELVASSTPGGSTNYADSVKGRFTISRDNAKRVYLQMNSLTPEDTAVYYCRWLLQPSIYDISRIYWGQGTLVTVSS yielded Qpatch IC50 of 315 nM

Briefly, Qpatch IC50 measured for F010300900 (VHH) VHH: EVQLVESGGGLVQPGGSLRLSCAASGPVFNINRMAWYRRAPGKQRELVASSTPGGDTNYADSVKGRFTISRDNAKRVYLQMNSLTPEDTAVYYCRWLLQPSIYDISRIYWGQGTLVTVSS : 196 nM
